System: MRC5
Experiment: Inhibitory concentration against C8805 HCMV strain of MRC5 cells
Type: functional, cell-based
Conditions: Homo sapiens
measured.quantity: IC50 (nM)
Return type: number; implicit unit nM.

Just so you know, measured IC50 for `CCn1c2ccccc2c2c3c(c4c5ccccc5[nH]c4c21)C(=O)NC3=O` came out at 60

* * *

Tested on: MRC5
Assay: Inhibitory concentration against 2599R HCMV strain of MRC5 cells
Type: functional, cell-based
Conditions: Homo sapiens
measured.quantity: IC50 (nM)
Return type: number; implicit unit nM.

Just so you know, measured IC50 for `CCn1c2ccccc2c2c3c(c4c5ccccc5[nH]c4c21)C(=O)NC3=O` came out at 130
